Test system: NCI-H322M lung
Assay: NCI-60 one-dose screen, 48 h (100 = growth as untreated, 0 = no growth, -100 = all killed)
Settings: 10 µM unless noted
Protocol: Growth inhibition of the NCI-H322M human Non-Small Cell Lung tumor cell line is measured as a screen for anti-cancer activity. Cells are grown in 96 well plates and exposed to the test compound for 48 hours. Compounds are tested at a single concentration, which is 10^-5 M for most compounds. The reported endpoint is percent growth (GI% or GIPRCNT), where numbers from 0 - 100% represent growth inhibition, and numbers from -100% - 0 represent cell death. […]
The panel holds about 83,000 compounds, 20% with a hit somewhere; the sample as a whole holds those more often. The source made the active and inactive calls. How the source made its calls: active means growth percent below 10; inactive means the rest.

# MOLECULE, SYSTEM_NAME, growth
data = [
    ("COc1cc(-c2nc(SCCC(C)C)nc(NNC(=O)c3ccncc3)c2C#N)cc(OC)c1OC", "NCI-H322M lung", "64.6% (inactive)"),
    ("COc1cccc(N2CCN(c3ncnc4c3[nH]c3ccc(F)cc34)C[C@H]2C)c1", "NCI-H322M lung", "89.6% (inactive)"),
    ("CCCCCc1ccc(S(=O)(=O)Nc2cccc(-c3csc(NC(=O)CCCCCN4CCN(C)CC4)n3)c2)cc1", "NCI-H322M lung", "84.1% (inactive)"),
    ("CCCCCc1ccc(S(=O)(=O)Nc2cccc(-c3csc(NC(=O)CNCCN(C)C)n3)c2)cc1", "NCI-H322M lung", "90.4% (inactive)"),
    ("Nc1ncc(-c2ccc3ncnc(Nc4cccc(Cl)c4F)c3c2)cn1", "NCI-H322M lung", "11% (inactive)"),
    ("COc1cccc(O)c1/C=C(/C)c1ccc2c(OC)cccc2[o+]1", "NCI-H322M lung", "103% (inactive)"),
    ("COc1cc(OC)cc(C(=O)Nc2sc3c(c2C(N)=O)CCC(=O)C3)c1", "NCI-H322M lung", "98.6% (inactive)"),
    ("CNC(=O)c1cc(Oc2ccc3nc(NC(=O)c4cc(N5CCOCC5)cc(C(F)(F)F)c4)sc3c2)ccn1", "NCI-H322M lung", "89.4% (inactive)"),
    ("CS(=O)(=O)Nc1cc(-c2ccc3ncc(C#N)c(NCc4ccccc4)c3c2)cnc1Cl", "NCI-H322M lung", "16.5% (inactive)"),
    ("CCOc1ccc(C(=O)Nc2ncc(Cc3ccc(F)cc3)s2)cc1", "NCI-H322M lung", "55.3% (inactive)"),
    ("NS(=O)(=O)c1ccc(-n2cc(-c3cccc(NC(=O)c4ccc(N5CCOCC5)c(C(F)(F)F)c4)c3)nn2)cc1", "NCI-H322M lung", "26% (inactive)"),
    ("O=C1[C@H]2Cc3c([nH]c4ccccc34)[C@@H](c3c(Cl)cccc3Cl)N2C(=O)CN1C1CCN(CC2CCCCC2)CC1", "NCI-H322M lung", "94.7% (inactive)"),
    ("Nc1nc(N)c2c(n1)NC(c1ccc(Cl)cc1)CC(c1ccc(Nc3nc(NCCO)nc(N4CCOCC4)n3)cc1)=N2 (configuration not stated)", "NCI-H322M lung", "95.5% (inactive)"),
    ("CN1CCN(Cc2ccc(NC(=O)c3cncc(C#Cc4cnn5cccnc45)c3)cc2C(F)(F)F)CC1", "NCI-H322M lung", "19.8% (inactive)"),
    ("Cn1ccnc1C(=O)/C=C/c1ccc(CNC(=O)c2c(F)c(F)c(F)c(F)c2F)cc1", "NCI-H322M lung", "81% (inactive)"),
    ("CC(C)(C)c1ccc(C(=O)Nc2sc3c(c2C(N)=O)CC/C(=N\\O)C3)cc1", "NCI-H322M lung", "56.9% (inactive)"),
    ("Cc1ccc(NC(=O)CNc2cc(C(N)=O)cc(F)c2C)c(Cl)c1", "NCI-H322M lung", "102% (inactive)"),
    ("CCOC(=O)C1=NNC(c2ccc(Cl)cc2)C1C(=O)N1C(=S)NC(=O)C1CC(C)C (configuration not stated)", "NCI-H322M lung", "94.7% (inactive)"),
    ("CCOC(=O)C(=O)CC(=O)N1C(=S)NC(=O)C1CC(C)C (configuration not stated)", "NCI-H322M lung", "96.8% (inactive)"),
    ("CCn1c(SCC(=O)Nc2cccc(C(=O)/C=C/c3cc(OC)c(OC)c(OC)c3)c2)nc2ccccc2c1=O", "NCI-H322M lung", "54.4% (inactive)"),
    ("CCCC(=O)NC(c1cccnc1)c1cc(C(C)(C)C)c2cccnc2c1O (configuration not stated)", "NCI-H322M lung", "33.6% (inactive)"),
    ("CCO/C=N/C1=C(C#N)C(c2ccc(OC)cc2)c2sc3c(CC)cccc3c2O1 (configuration not stated)", "NCI-H322M lung", "42.2% (inactive)"),
    ("COc1ccc(-n2c(/C=C3\\C(=O)Nc4ccccc43)ccc2CO)cc1", "NCI-H322M lung", "104% (inactive)"),
    ("CCNC(=O)N1CCc2cc(OC)c(OCCc3ccc(OC)nc3)cc2C1c1ccc(C)cc1C (configuration not stated)", "NCI-H322M lung", "38% (inactive)"),
    ("COC(=O)C(Cc1ccccc1)Nc1nc(NC(Cc2ccccc2)C(=O)OC)nc(N2CCOCC2)n1 (configuration not stated)", "NCI-H322M lung", "97.4% (inactive)"),
    ("Cc1cc(S(=O)(=O)N(C)C)cc(NCC(=O)NC(=O)NCC(C)C)c1C", "NCI-H322M lung", "100% (inactive)"),
    ("N#Cc1cccc(CN2CCC3=C(C2)C(=O)N(Cc2ccc(Cl)cc2)C2=NCCN23)c1", "NCI-H322M lung", "50.8% (inactive)"),
    ("Cc1cc(C(NC(=O)CCCCCNc2cccc3c2C(=O)N(C2CCC(=O)NC2=O)C3=O)c2ccc3c(c2)OC(F)(F)O3)c(O)c2ncccc12 (configuration not stated)", "NCI-H322M lung", "71.1% (inactive)"),
    ("N#Cc1cn(Cc2ccc(Cl)cc2Cl)c(C(=O)c2ccc(Br)cc2)c1N", "NCI-H322M lung", "95% (inactive)"),
    ("O=C(NNc1nc2cc(F)c(F)cc2n2c(CN3CC4CNCC4C3)ccc12)c1cnccn1 (configuration not stated)", "NCI-H322M lung", "26.7% (inactive)"),
    ("COc1cc(-c2nn(C(C)(C)C)cc2-c2ccnc(NCCCNS(=O)(=O)c3ccc(F)cc3)n2)ccc1Cl", "NCI-H322M lung", "87.4% (inactive)"),
    ("CCNC(=O)N1CCc2cc(OC)c(OCCc3ccc(OC)cc3)cc2C1c1ccc(OC)cc1C (configuration not stated)", "NCI-H322M lung", "40.1% (inactive)"),
    ("Clc1nc2ccccc2nc1-c1nnc(C2CCCCC2)o1", "NCI-H322M lung", "97.8% (inactive)"),
    ("COc1ccc(/C=N/NC(=O)c2cn(C3CC3)c3c(OC)c(N4CC5CCCNC5C4)c(F)cc3c2=O)cc1 (configuration not stated)", "NCI-H322M lung", "89.7% (inactive)"),
    ("O=C(NNc1nc2cc(F)ccc2n2c(CN3CCCC3)ccc12)c1cnccn1", "NCI-H322M lung", "27.1% (inactive)"),
    ("CCc1cccc2c3c(sc12)C(c1ccc(OC)cc1)C(C#N)=C(/N=C/c1ccc(Cl)cc1)O3 (configuration not stated)", "NCI-H322M lung", "55.1% (inactive)"),
    ("NS(=O)(=O)c1ccc(Nc2nc(SCC(=O)c3ccc(Cl)cc3)nc3c2CCCC3)cc1", "NCI-H322M lung", "87% (inactive)"),
]

The values you see were collected from PubChem BioAssay (NCI).
